Biological target: Serine/threonine-protein kinase Nek9 (Homo sapiens, UniProt Q8TD19); also: in the data inactive means no Kd found up to 30 µM
Sequence (Q8TD19 whole entry): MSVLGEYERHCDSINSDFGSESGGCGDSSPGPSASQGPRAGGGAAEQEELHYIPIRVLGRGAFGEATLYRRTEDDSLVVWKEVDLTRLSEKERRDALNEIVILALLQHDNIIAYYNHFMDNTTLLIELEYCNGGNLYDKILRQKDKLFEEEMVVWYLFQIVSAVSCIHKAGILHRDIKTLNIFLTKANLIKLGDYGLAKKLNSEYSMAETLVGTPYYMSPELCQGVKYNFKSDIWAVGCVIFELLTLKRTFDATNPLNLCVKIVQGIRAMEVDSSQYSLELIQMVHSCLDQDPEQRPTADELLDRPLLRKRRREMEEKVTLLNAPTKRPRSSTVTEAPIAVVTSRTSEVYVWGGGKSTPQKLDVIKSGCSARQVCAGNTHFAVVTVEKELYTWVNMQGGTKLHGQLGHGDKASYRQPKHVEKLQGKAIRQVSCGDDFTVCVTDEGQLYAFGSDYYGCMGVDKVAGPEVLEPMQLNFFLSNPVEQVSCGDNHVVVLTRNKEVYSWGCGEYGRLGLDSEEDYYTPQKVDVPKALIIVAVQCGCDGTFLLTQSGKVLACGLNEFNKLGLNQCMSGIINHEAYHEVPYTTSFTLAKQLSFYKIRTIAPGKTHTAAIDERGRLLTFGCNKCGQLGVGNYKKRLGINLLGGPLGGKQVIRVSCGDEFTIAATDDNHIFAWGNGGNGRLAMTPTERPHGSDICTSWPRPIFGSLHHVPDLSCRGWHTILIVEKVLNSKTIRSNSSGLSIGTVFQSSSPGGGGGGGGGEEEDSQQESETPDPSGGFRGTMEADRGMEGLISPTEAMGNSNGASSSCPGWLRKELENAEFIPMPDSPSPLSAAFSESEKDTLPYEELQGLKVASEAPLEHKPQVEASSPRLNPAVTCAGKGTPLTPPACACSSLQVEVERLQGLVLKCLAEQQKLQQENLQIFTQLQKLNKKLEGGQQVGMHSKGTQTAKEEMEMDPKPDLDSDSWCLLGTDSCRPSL
Calls of active or inactive are those of the source.
Hi! Could you answer with just one of these? T (active), F (inactive)

A selection of reference data follows.
[[record]]
molecule = "CC(C)(O)CC(=O)NCCn1ccc2ncnc(Nc3ccc(Oc4cccc(C(F)(F)F)c4)c(Cl)c3)c21 [TAK-285]"
labelclass = "F"

[[record]]
molecule = "CC[C@@](C)(Nc1ccnc(-c2c[nH]c3ncccc23)n1)C(=O)NCC(F)(F)F [DECERNOTINIB]"
labelclass = "F"


INPUT: // return assay outcome for COc1cc2ncnc(Nc3ccc(F)c(Cl)c3)c2cc1NC(=O)/C=C/CN1CCCCC1 [DACOMITINIB ANHYDROUS]
OUTPUT: F

INPUT: Hello, I am checking results. What call was entered for CCN1CCN(Cc2ccc(Nc3ncc(F)c(-c4cc(F)c5nc(C)n(C(C)C)c5c4)n3)nc2)CC1 [ABEMACICLIB] ?
OUTPUT: F

INPUT: Lab log entry: C[C@@H]1COC(Nc2ccc3ncnc(Nc4ccc(OCc5nccs5)c(Cl)c4)c3c2)=N1 [VARLITINIB] — outcome as called in the assay?
OUTPUT: F

INPUT: Short answer needed: outcome of this test for COc1cccc(Nc2ncnn3ccc(CN4CC[C@@H](N)[C@H](O)C4)c23)c1 [BMS-690514] ?
OUTPUT: F

INPUT: Hello, I am checking results. What call was entered for NC[C@@](O)(c1ccc(Cl)cc1)c1ccc(-c2cn[nH]c2)cc1 [AT-13148] ?
OUTPUT: F

INPUT: // return assay outcome for CNC(=O)c1cc(COc2nnc(Nc3ccc(Cl)cc3)c3ccoc23)ccn1 [TELATINIB]
OUTPUT: F

INPUT: Would you mind telling me which call this test gave O=C(O)c1ccc2c(c1)nc(Nc1cccc(Cl)c1)c1ccncc12 [SILMITASERTIB] ?
OUTPUT: F

INPUT: How was O=C(Nc1ccc(OC(F)(F)F)cc1)c1sccc1NCc1ccnc2ccccc12 [OSI-930] classified in this test?
OUTPUT: F

INPUT: Could you check what this test reported for Cn1c(=O)n(-c2ccc(C(C)(C)C#N)cc2)c2c3cc(-c4cnc5ccccc5c4)ccc3ncc21 [DACTOLISIB] ?
OUTPUT: F

INPUT: Hi, sorry to bother you, what did the test record for COc1cc2nccc(Oc3ccc(NC(=O)C4(C(=O)Nc5ccc(F)cc5)CC4)cc3)c2cc1OC [CABOZANTINIB] ?
OUTPUT: F

INPUT: What classification did O[C@H]1CC[C@H](Nc2ncc3nc(Nc4c(F)cc(F)cc4F)n([C@H]4CCOC4)c3n2)CC1 [TANZISERTIB] end up with in this test?
OUTPUT: F

Where do these numbers come from? They come from ChEMBL document CHEMBL3991601.
